Record form. Attribute: IC50. Fill in for each entry.
Molecular target: BRD2 (Homo sapiens)
Sequence (P25440 whole entry): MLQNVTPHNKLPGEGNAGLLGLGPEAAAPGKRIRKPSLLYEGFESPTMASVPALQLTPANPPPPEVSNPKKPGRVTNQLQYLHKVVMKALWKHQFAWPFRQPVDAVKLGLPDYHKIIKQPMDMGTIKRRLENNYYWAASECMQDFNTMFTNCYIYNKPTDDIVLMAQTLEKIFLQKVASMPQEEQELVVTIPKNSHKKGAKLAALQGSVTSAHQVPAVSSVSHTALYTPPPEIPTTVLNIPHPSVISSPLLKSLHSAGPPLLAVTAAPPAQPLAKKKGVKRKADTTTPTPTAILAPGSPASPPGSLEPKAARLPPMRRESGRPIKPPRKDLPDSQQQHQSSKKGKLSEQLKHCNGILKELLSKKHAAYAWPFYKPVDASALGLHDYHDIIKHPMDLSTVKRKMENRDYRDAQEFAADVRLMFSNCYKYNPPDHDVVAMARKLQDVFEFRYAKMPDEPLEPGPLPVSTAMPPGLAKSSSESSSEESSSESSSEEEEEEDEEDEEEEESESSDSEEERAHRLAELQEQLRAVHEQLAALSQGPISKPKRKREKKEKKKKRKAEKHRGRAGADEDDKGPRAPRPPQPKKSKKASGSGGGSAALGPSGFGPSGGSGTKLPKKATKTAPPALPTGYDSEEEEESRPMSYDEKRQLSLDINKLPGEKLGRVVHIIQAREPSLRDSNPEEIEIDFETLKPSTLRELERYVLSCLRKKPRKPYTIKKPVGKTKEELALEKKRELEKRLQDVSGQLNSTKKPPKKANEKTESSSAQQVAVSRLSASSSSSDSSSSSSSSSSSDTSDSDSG
Experiment: Inhibition of bromodomains, BRD2
Format: binding
Settings: Table 3 Bromodomain
Expressed in µM, but write only the number.

Prompt: Checklist item: IC50 tested on BRD2 (Homo sapiens), entry COc1cc(-c2cc(=O)c3c(O)cc(O)c(CC=C(C)C)c3o2)ccc1O [FBL-03G] , value?
Completion: 12

Prompt: How about COc1cc(-c2cc(=O)c3c(O)c(CC=C(C)C)c(O)cc3o2)ccc1O [FBL-03B] ?
Completion: 9.52

###

Target: FLT3(D835V) (Homo sapiens, UniProt P36888, D835V)
Construct: made in house
Sequence (P36888 27-993 D835V): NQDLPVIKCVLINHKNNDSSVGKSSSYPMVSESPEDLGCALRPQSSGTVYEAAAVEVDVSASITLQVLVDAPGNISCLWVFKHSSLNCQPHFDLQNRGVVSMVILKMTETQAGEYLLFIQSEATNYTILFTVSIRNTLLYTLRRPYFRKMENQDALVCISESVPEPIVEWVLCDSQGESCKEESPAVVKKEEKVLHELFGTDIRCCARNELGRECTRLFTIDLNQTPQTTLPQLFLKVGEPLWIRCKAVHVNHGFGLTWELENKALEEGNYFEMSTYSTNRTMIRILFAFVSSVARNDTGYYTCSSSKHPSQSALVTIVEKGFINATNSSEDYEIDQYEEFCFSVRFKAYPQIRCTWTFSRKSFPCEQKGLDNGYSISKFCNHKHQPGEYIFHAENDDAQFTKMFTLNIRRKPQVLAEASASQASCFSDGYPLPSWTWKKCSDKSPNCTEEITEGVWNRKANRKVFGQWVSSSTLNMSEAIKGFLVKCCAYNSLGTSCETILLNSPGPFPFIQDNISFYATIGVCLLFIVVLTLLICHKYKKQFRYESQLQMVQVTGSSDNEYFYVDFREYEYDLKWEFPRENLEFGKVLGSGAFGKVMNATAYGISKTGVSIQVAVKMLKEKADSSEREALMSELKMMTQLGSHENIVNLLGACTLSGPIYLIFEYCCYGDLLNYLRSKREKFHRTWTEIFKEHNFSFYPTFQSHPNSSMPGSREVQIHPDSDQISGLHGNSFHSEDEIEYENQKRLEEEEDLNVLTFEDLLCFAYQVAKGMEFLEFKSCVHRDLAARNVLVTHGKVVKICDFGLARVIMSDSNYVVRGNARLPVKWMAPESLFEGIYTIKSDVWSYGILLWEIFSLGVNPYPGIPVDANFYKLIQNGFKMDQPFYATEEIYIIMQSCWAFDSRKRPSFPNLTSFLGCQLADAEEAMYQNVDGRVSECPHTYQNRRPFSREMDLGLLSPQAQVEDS
Experiment: Kinase competition binding assay, FLT3(D835V)
Conditions: Table 1 kinase panel
readoutLabel: IC50 (nM)
The reply should be a number in nM, with the unit left off.

Prompt: IC50 lookup needed for COc1cc(-c2cc(=O)c3c(O)cc(O)c(C/C=C(\C)CCC=C(C)C)c3o2)ccc1O [FBL-03C] , thanks.
Completion: 190

Prompt: Next compound up: COc1cc(-c2cc(=O)c3c(O)c(C/C=C(\C)CCC=C(C)C)c(O)cc3o2)ccc1O [FBL-03A]
Completion: 220

Where do these numbers come from? They come from patent US20180353462A1.
